compounds and their reported pEC50
System: TK^+ HSV 1
Test: In vitro antiviral activity (CPE) against TK^+ HSV-1 (BWVL#10186) in Vero cells
Assay type: cell-based, Herpes type 1 virus (HSV-1), human clinical isolate
Details: Human alphaherpesvirus 1; TK^+ HSV 1, Vero cells, CPE, about 72 hours; read-out: ED50 (the source's name)
Please express pEC50 as -log10 of the molar concentration.

Previously resolved entries follow.
{"Compound": "COC(=O)CC(OP(=O)(OCCOCn1cnc2c(=O)[nH]c(N)nc21)OC(CC(=O)OC)c1ccc(OC(C)=O)cc1)c1ccc(OC(C)=O)cc1 (stereo not shown) [Prodrug 1]", "pEC50": 5.34}
{"Compound": "COC(=O)CC(OP(=O)(OCCOCn1cnc2c(=O)[nH]c(N)nc21)OC(CC(=O)OC)c1ccc(OC(=O)C(C)(C)C)cc1)c1ccc(OC(=O)C(C)(C)C)cc1 (stereo not shown) [Prodrug 2]", "pEC50": 5.20}
{"Compound": "Nc1nc2c(ncn2COCCO)c(=O)[nH]1 [Acyclovir, acyclovir, reference compound]", "pEC50": 5.85}

Measured pEC50 (TK^+ HSV 1), entry COC(=O)CC(O[PH](=O)OCCOCn1cnc2c(=O)[nH]c(N)nc21)c1ccc(OC(=O)C(C)(C)C)cc1 (stereo not shown) [Prodrug 3] : 5.26

----------
Here the recorded pEC50 is given for each entry.
Tested on: TK^- HSV 1
Assay: In vitro antiviral activity (CPE) against TK^- acyclovir resistant HSV-1 (BWVL#10168) in Vero cells
Assay type: cell-based, Herpes type 1 virus (HSV-1), patient isolate
Conditions: Human alphaherpesvirus 1, Vero, 72 h, read-out: ED50
// field semantics: pEC50 = negative decimal log of concentration (mol/L)

Here's what some known entries look like.
{"Compound": "Nc1nc2c(ncn2COCCO)c(=O)[nH]1 [Acyclovir, acyclovir, reference compound]", "Target": "TK^- HSV 1", "pEC50": 4.46}
{"Compound": "COC(=O)CC(OP(=O)(OCCOCn1cnc2c(=O)[nH]c(N)nc21)OC(CC(=O)OC)c1ccc(OC(C)=O)cc1)c1ccc(OC(C)=O)cc1 (stereo not shown) [Prodrug 1]", "Target": "TK^- HSV 1", "pEC50": 4.77}
{"Compound": "COC(=O)CC(OP(=O)(OCCOCn1cnc2c(=O)[nH]c(N)nc21)OC(CC(=O)OC)c1ccc(OC(=O)C(C)(C)C)cc1)c1ccc(OC(=O)C(C)(C)C)cc1 (stereo not shown) [Prodrug 2]", "Target": "TK^- HSV 1", "pEC50": 5.12}

--- query ---
The compound COC(=O)CC(O[PH](=O)OCCOCn1cnc2c(=O)[nH]c(N)nc21)c1ccc(OC(=O)C(C)(C)C)cc1 (stereo not shown) [Prodrug 3] showed pEC50 equal to 4.43

----------
Assay: in vitro
Format: cell-based
Conditions: african green monkey, vero cells
Procedure: Vero (continuously passaged African green monkey kidney) was obtained from the American Type Culture Collection (ATCC) (Rockville, Md.). Growth medium was Medium 199, 5% FBS and 0.1% NaHCO3. Test medium was Eagle's minimum essential medium with non-essential amino acids (MEM), with 2% FBS, 0.18% NaHCO3 and 50 μg gentamicin/ml. The growth medium contained no antibiotics. […]
Recorded Endpoint: CC50

// known answers, use as guide
{"Molecule": "COC(=O)CC(OP(=O)(OCCOCn1cnc2c(=O)[nH]c(N)nc21)OC(CC(=O)OC)c1ccc(OC(C)=O)cc1)c1ccc(OC(C)=O)cc1 (stereo not shown) [Prodrug 1]", "CC50": "> 100 µg/mL"}
{"Molecule": "COC(=O)CC(O[PH](=O)OCCOCn1cnc2c(=O)[nH]c(N)nc21)c1ccc(OC(=O)C(C)(C)C)cc1 (stereo not shown) [Prodrug 3]", "CC50": "> 100 µg/mL"}
{"Molecule": "Nc1nc2c(ncn2COCCO)c(=O)[nH]1 [Acyclovir, acyclovir, reference compound]", "CC50": "> 100 µg/mL"}

Attention now shifts to the item below.
# CC50 of COC(=O)CC(OP(=O)(OCCOCn1cnc2c(=O)[nH]c(N)nc21)OC(CC(=O)OC)c1ccc(OC(=O)C(C)(C)C)cc1)c1ccc(OC(=O)C(C)(C)C)cc1 (stereo not shown) [Prodrug 2] = > 100 µg/mL
